- System: L1210
- assay overview: Antitumor activity against mouse L1210 cells […] in ip dosed C3H X DBA2 F1 hybrid mouse on day 0 and dosed once daily on days 1 to 5 assessed as increase in life span relative to control
- Format: functional
Measured D40, listed per entry for reference.

smi | D40
C[n+]1ccc(Nc2ccc(NC(=O)c3ccc(Nc4cc[n+](C)c5cc(Cl)ccc45)cc3)cc2)cc1.[Br-].[Br-] | 12 mg/kg
CC[n+]1cccc(NC(=O)c2ccc(NC(=O)/C=C/c3ccc(C(=O)Nc4ccc(C(=O)Nc5ccc[n+](CC)c5)cc4)cc3)cc2)c1.Cc1ccc(S(=O)(=O)[O-])cc1.Cc1ccc(S(=O)(=O)[O-])cc1 | 22 mg/kg
C[n+]1cccc2ccc(NC(=O)c3ccc(NC(=O)c4ccc(C(=O)Nc5ccc6ccc[n+](C)c6c5)cc4)cc3)cc21.Cc1ccc(S(=O)(=O)[O-])cc1.Cc1ccc(S(=O)(=O)[O-])cc1 | 15 mg/kg
C[n+]1ccc(-c2ccc(-c3ccc(-c4ccc(NC(=O)c5ccc(C(=O)Nc6ccc(-c7ccc(-c8ccc(-c9cc[n+](C)cc9)cc8)cc7)cc6)cc5)cc4)cc3)cc2)cc1.Cc1ccc(S(=O)(=O)[O-])cc1.Cc1ccc(S(=O)(=O)[O-])cc1 | 22 mg/kg
Cc1cc(C(=O)Nc2ccc(C(=O)Nc3ccc[n+](C)c3)cc2)ccc1C(=O)Nc1ccc(C(=O)Nc2ccc[n+](C)c2)cc1.Cc1ccc(S(=O)(=O)[O-])cc1.Cc1ccc(S(=O)(=O)[O-])cc1 | 5.7 mg/kg
CCC[n+]1cccc2cc(NC(=O)c3ccc(NC(=O)c4ccc(C(=O)Nc5ccc6c(ccc[n+]6CCC)c5)cc4)cc3)ccc21.Cc1ccc(S(=O)(=O)[O-])cc1.Cc1ccc(S(=O)(=O)[O-])cc1 | 38 mg/kg

QUERY: D40 lookup needed for CCC[n+]1ccc(Nc2ccc(NC(=O)c3ccc(Nc4cc[n+](CCC)c5ccc(N)cc45)cc3)cc2)cc1.[Br-].[Br-] , thanks.
RESULT: 1.8 mg/kg

QUERY: Input C[n+]1ccc(Nc2ccc(C(=O)Nc3ccc(Nc4cc[n+](C)c5ccc(N)cc45)cc3)cc2)cc1.Cc1ccc(S(=O)(=O)[O-])cc1.Cc1ccc(S(=O)(=O)[O-])cc1
RESULT: 1.2 mg/kg

---

- assay overview: Displacement of ethidium from poly[d(A-T)]-poly[d(A-T)] DNA by fluorimetric method
endpoint name: C50 (µM)
// note: answer is a bare numeric in µM

The following compounds have reported results that may help.
smi | endpoint name | observed
CC[n+]1cccc2cc(NC(=O)c3ccc(-c4ccc(-c5ccc(-c6ccc(C(=O)Nc7ccc8c(ccc[n+]8CC)c7)cc6)cc5)cc4)cc3)ccc21.Cc1ccc(S(=O)(=O)[O-])cc1.Cc1ccc(S(=O)(=O)[O-])cc1 | C50 | 0.18
C[n+]1cccc(NC(=O)c2ccc(NC(=O)c3ccc(C(=O)Nc4ccc(C(=O)Nc5ccc[n+](C)c5)c5ccccc45)cc3)cc2)c1.Cc1ccc(S(=O)(=O)[O-])cc1.Cc1ccc(S(=O)(=O)[O-])cc1 | C50 | 2.3

QUERY: C50 lookup needed for C[n+]1cccc(NC(=O)c2ccc(NC(=O)c3ccc(C(=O)Nc4ccc(C(=O)Nc5ccc[n+](C)c5)cc4)c(Cl)c3)cc2)c1.Cc1ccc(S(=O)(=O)[O-])cc1.Cc1ccc(S(=O)(=O)[O-])cc1 , thanks.
RESULT: 0.95

QUERY: Input C[n+]1ccc(Nc2ccc(NC(=O)c3ccc(Nc4cc[n+](C)c5ccc(N)cc45)cc3)cc2N)cc1.[I-].[I-]
RESULT: 0.23

QUERY: Input C[n+]1cccc(NC(=O)c2ccc(NC(=O)c3ccc(C(=O)Nc4ccc(C(=O)Nc5ccc[n+](C)c5)c(N)c4)cc3N)cc2)c1.Cc1ccc(S(=O)(=O)[O-])cc1.Cc1ccc(S(=O)(=O)[O-])cc1
RESULT: 0.15

---

- assay overview: Lipophilic-hydrophilic balance, Rm of the compound by partition chromatography
- Type: physicochemical
Measured Rm, listed per entry for reference.

The following compounds have reported results that may help.
smi | endpoint name | observed
COc1cc(NC(=O)c2ccc(Nc3cc[n+](C)cc3)cc2)ccc1Nc1cc[n+](C)c2cc(N)ccc12.[Br-].[Br-] | Rm | 0.14
CCC[n+]1cccc(NC(=O)c2ccc(NC(=O)c3ccc(C(=O)Nc4ccc[n+](CCC)c4)cc3)cc2)c1.Cc1ccc(S(=O)(=O)[O-])cc1.Cc1ccc(S(=O)(=O)[O-])cc1 | Rm | 0.65

QUERY: Rm lookup needed for CC[n+]1cccc2cc(NC(=O)CCc3ccc(C(=O)Nc4ccc5c(ccc[n+]5CC)c4)cc3)ccc21.Cc1ccc(S(=O)(=O)[O-])cc1.Cc1ccc(S(=O)(=O)[O-])cc1 , thanks.
RESULT: 1.1

---

Measured C50, listed per entry for reference.
- assay overview: Displacement of ethidium from poly[d(G-C)]-poly[d(G-C)] DNA (unknown origin) by fluorimetric method
// note: answer is a bare numeric in µM

smi | C50, µM
CCC[n+]1cccc(NC(=O)c2ccc(NC(=O)c3ccc(C(=O)Nc4ccc(C(=O)Nc5ccc[n+](CCC)c5)c(N)c4)c(N)c3)cc2N)c1.Cc1ccc(S(=O)(=O)[O-])cc1.Cc1ccc(S(=O)(=O)[O-])cc1 | 0.48
CC[n+]1cccc(NC(=O)c2ccc(NC(=O)c3ccc(C(=O)Nc4ccc(C(=O)Nc5ccc[n+](CC)c5)cc4)cc3)cc2)c1.Cc1ccc(S(=O)(=O)[O-])cc1.Cc1ccc(S(=O)(=O)[O-])cc1 | 0.9
CCC[n+]1ccc(Nc2ccc(NC(=O)c3ccc(Nc4cc[n+](CCC)c5ccc(N)cc45)cc3)cc2)cc1.[Br-].[Br-] | 1.1
COc1ccc2c(c1)c(Nc1ccc(C(=O)Nc3ccc(Nc4cc[n+](C)cc4)cc3)cc1)cc[n+]2C.Cc1ccc(S(=O)(=O)[O-])cc1.Cc1ccc(S(=O)(=O)[O-])cc1 | 1.15

// next item, C50 requested
QUERY: C50 lookup needed for CC[n+]1cccc(NC(=O)c2ccc(NC(=O)c3ccc(NC(=O)c4ccc(C(=O)Nc5ccc[n+](CC)c5)cc4)cc3)cc2)c1.Cc1ccc(S(=O)(=O)[O-])cc1.Cc1ccc(S(=O)(=O)[O-])cc1 , thanks.
RESULT: 0.65

---

Measured Rm, listed per entry for reference.
- assay overview: Lipophilic-hydrophilic balance, Rm of the compound by partition chromatography
- Type: physicochemical
Simply state the number, no unit and no words.

The following molecules have reported results that may help.
smi | observed
C[n+]1ccc(Nc2ccc(NC(=O)c3ccc(C(=O)Nc4ccc(Nc5cc[n+](C)c(N)n5)cc4)cc3)cc2)nc1N.Cc1ccc(S(=O)(=O)[O-])cc1.Cc1ccc(S(=O)(=O)[O-])cc1 | -0.64
C[n+]1cccc2cc(NC(=O)/C=C/c3ccc(C(=O)Nc4ccc5c(ccc[n+]5C)c4)cc3)ccc21.Cc1ccc(S(=O)(=O)[O-])cc1.Cc1ccc(S(=O)(=O)[O-])cc1 | -0.2
CCC[n+]1ccc(Nc2ccc(NC(=O)c3ccc(Nc4cc[n+](CCC)c5ccccc45)cc3N)cc2N)cc1.[I-].[I-] | 0.63

QUERY: Rm lookup needed for COc1cccc2c(Nc3ccc(C(=O)Nc4ccc(Nc5cc[n+](C)cc5)cc4)cc3)cc[n+](C)c12.[Br-].[Br-] , thanks.
RESULT: 0.3

QUERY: Input C[n+]1cccc(NC(=O)c2ccc(NC(=O)/C=C/c3ccc(C(=O)Nc4ccc(C(=O)Nc5ccc[n+](C)c5)cc4)cc3)cc2)c1.Cc1ccc(S(=O)(=O)[O-])cc1.Cc1ccc(S(=O)(=O)[O-])cc1
RESULT: -0.95

QUERY: Input C[n+]1ccc(Nc2ccc(NC(=O)c3ccc(Nc4c(-c5ccccc5)c[n+](C)c5ccc(N)cc45)cc3)cc2)cc1.[Br-].[Br-]
RESULT: 0.65

---

- assay overview: Lipophilic-hydrophilic balance, Rm of the compound by partition chromatography
- Type: physicochemical
Measured Rm, listed per entry for reference.
Simply state the number, no unit and no words.

smi | endpoint name | observed
CC[n+]1cccc(NC(=O)c2ccc(NC(=O)c3ccc(C(=O)Nc4ccc(C(=O)Nc5ccc[n+](CC)c5)cc4)c(N)c3)cc2)c1.Cc1ccc(S(=O)(=O)[O-])cc1.Cc1ccc(S(=O)(=O)[O-])cc1 | Rm | -0.15

QUERY: Rm lookup needed for CCCC[n+]1cccc2cc(NC(=O)c3ccc(C(=O)Nc4ccc5c(ccc[n+]5CCCC)c4)cc3)ccc21.Cc1ccc(S(=O)(=O)[O-])cc1.Cc1ccc(S(=O)(=O)[O-])cc1 , thanks.
RESULT: 0.67

QUERY: Input CC[n+]1ccc(Nc2ccc(NC(=O)c3ccc(Nc4cc[n+](CC)c5cc(N)ccc45)cc3N)cc2)cc1.[Br-].[Br-]
RESULT: 0.07

---

- assay overview: Lipophilic-hydrophilic balance, Rm of the compound by partition chromatography
- Assay type: physicochemical
Output yes (1) for Rm not less than 0.5; output no (0) otherwise.

Completed entries (count: 4):
smi | class assignment
CC[n+]1cccc(NC(=O)c2ccc(NC(=O)c3ccc(C(=O)Nc4ccc(C(=O)Nc5ccc[n+](CC)c5)cc4OC)cc3)c(OC)c2)c1.Cc1ccc(S(=O)(=O)[O-])cc1.Cc1ccc(S(=O)(=O)[O-])cc1 | no (0)
COc1ccc2c(c1)c(Nc1ccc(C(=O)Nc3ccc(Nc4cc[n+](C)cc4)cc3)cc1)cc[n+]2C.Cc1ccc(S(=O)(=O)[O-])cc1.Cc1ccc(S(=O)(=O)[O-])cc1 | no (0)
CC[n+]1cccc2cc(NC(=O)c3ccc(C(=O)Nc4ccc5c(ccc[n+]5CC)c4)cc3)ccc21.Cc1ccc(S(=O)(=O)[O-])cc1.Cc1ccc(S(=O)(=O)[O-])cc1 | no (0)
C[n+]1cccc(-c2ccc(NC(=O)c3ccc(C(=O)Nc4ccc(-c5ccc(-c6ccc(-c7ccc[n+](C)c7)cc6)cc5)cc4)cc3)cc2)c1.Cc1ccc(S(=O)(=O)[O-])cc1.Cc1ccc(S(=O)(=O)[O-])cc1 | no (0)

Field: next molecule
QUERY: Does the reported Rm for CCC[n+]1ccc(-c2ccc(NC(=O)c3ccc(Nc4cc[n+](CCC)c5ccccc45)cc3)cc2)cc1.[Br-].[Br-] fall at or above the 0.5 mark?
RESULT: yes (1)
